# system: PI3K α (Homo sapiens)
# Sequence (P42336 whole entry, one chain of several): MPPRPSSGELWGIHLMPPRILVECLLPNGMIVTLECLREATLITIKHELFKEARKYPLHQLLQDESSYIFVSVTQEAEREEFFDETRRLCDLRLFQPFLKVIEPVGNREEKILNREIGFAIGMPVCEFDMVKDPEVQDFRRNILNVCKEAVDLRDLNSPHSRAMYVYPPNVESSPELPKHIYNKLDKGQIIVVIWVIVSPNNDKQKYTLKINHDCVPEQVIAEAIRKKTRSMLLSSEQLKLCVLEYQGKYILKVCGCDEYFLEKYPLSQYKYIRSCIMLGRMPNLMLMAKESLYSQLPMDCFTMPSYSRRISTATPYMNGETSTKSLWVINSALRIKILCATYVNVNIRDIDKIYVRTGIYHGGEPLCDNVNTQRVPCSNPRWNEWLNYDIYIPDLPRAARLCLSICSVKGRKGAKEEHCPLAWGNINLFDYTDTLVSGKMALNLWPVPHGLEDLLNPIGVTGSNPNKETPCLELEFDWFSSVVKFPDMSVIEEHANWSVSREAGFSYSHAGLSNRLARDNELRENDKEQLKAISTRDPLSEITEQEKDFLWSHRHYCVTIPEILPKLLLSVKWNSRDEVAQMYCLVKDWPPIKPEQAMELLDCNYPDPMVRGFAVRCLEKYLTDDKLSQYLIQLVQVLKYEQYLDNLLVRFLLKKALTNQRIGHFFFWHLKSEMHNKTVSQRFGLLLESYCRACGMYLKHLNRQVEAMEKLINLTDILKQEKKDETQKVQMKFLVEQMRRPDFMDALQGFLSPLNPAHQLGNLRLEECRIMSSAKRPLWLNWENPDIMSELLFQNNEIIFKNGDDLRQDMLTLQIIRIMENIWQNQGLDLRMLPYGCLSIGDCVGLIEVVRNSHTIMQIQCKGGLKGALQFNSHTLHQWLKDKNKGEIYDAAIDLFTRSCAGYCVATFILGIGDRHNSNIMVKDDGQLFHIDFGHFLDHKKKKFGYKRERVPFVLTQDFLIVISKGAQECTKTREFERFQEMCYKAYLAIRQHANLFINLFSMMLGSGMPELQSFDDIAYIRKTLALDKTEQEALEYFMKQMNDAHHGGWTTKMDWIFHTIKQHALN
# assay-procedure: PI 3-Kinase (human) HTRF assay, PI3K α
pIC50: −log10 of the molar value.
Give pIC50 for every item shown.

Query block: Recorded pIC50 for Nc1nsc2cc(-c3ccc4nccc(-c5ccncc5)c4c3)ccc12 with PI3K α (Homo sapiens), please?
Result block: > 7.00

Query block: Further, for Nc1nc2cc(-c3ccc4ncc(C(=O)NCCOCCO)n4c3)ccc2o1 ?
Result block: > 6.00

Query block: Further, for COC(=O)Nc1noc2ccc(-c3nn(C(C)C)c4ncnc(N)c34)cc12 ?
Result block: > 5.00

Query block: Further, for C[C@H]1CN(c2cnc3scc(-c4ccc5oc(N)nc5c4)c3n2)CCN1 ?
Result block: < 5.00

Query block: Further, for C=Cc1oc(NC(C)=O)nc1/C=C/c1nn(C)c2ncnc(N)c12 ?
Result block: > 5.00

Query block: Further, for CCN1CCN(C(=O)c2cnc3ncc(-c4ccc5oc(N)nc5c4)cn23)CC1 ?
Result block: > 6.00

Query block: Further, for Nc1nc2cc(-c3ccc4ncc(N5CCNC(=O)C5)nc4n3)ccc2o1 ?
Result block: > 7.00

Query block: Further, for C[C@H]1CN(C2CN(c3cnc4ccc(-c5ccc6oc(N)nc6c5)nc4c3)C2)CCN1C ?
Result block: > 7.00

* * *

# System: pAKT(S473), pAKT(T308) in PC3 cells
# assay-procedure: Western blot of Akt phosphorylation (pAKT) in PC3 cells
# Type: cell-based
# reported-conditions: PC3 cells, about 2 hours treatment, read-out: inhibition of pAKT, IC50
recorded-metric: IC50

Query block: Look at this compound and give its reported IC50. Nc1nc2cc(-c3ccc4ncc(C(=O)N5CCOCC5)n4c3)ccc2o1
Result block: ~10 µM

* * *

# system: PI3K α (Homo sapiens)
# assay-procedure: PI 3-Kinase (human) HTRF assay, PI3K α
# reported-conditions: read-out: PI3K α IC50; Table 2
pIC50: −log10 of the molar value.
Give pIC50 for every item shown.

Query block: Look at this compound and give its reported pIC50. Nc1ncnc2c1c(-c1cc3cc(O)cc(Cl)c3[nH]1)nn2C1CCOCC1
Result block: 6.30 to 7.00

Query block: Further, for CC(=O)N1CCC(n2nc(-c3cc4cc(O)cc(Cl)c4[nH]3)c3c(N)ncnc32)CC1 ?
Result block: 6.30 to 7.00

Query block: Further, for Nc1ncnc2c1c(-c1cc3cccc(O)c3[nH]1)nn2C1CCN(C(=O)C2CC2)CC1 ?
Result block: < 6.30

Query block: Further, for Cc1nccn1CCn1nc(-c2cc3cc(O)ccc3[nH]2)c2c(N)ncnc21 ?
Result block: < 6.30

Query block: Further, for Nc1ncnc2c1c(-c1cc3cc(O)ccc3[nH]1)nn2CCN1CCOCC1 ?
Result block: < 6.30

Query block: Further, for Nc1ncnc2c1c(-c1cc3cc(O)ccc3[nH]1)nn2Cc1cccnc1 ?
Result block: < 6.30

Query block: Further, for COc1cc(Cl)c2[nH]c(-c3nn(C4CCOCC4)c4ncnc(N)c34)cc2c1 ?
Result block: < 6.30

Query block: Further, for CC(C)N1CCC(n2nc(-c3cc4cc(O)ccc4[nH]3)c3c(N)ncnc32)CC1 ?
Result block: < 6.30

* * *

Give pIC50 for every item shown.
# system: PI3K δ (Homo sapiens)
# Sequence (O00329 whole entry): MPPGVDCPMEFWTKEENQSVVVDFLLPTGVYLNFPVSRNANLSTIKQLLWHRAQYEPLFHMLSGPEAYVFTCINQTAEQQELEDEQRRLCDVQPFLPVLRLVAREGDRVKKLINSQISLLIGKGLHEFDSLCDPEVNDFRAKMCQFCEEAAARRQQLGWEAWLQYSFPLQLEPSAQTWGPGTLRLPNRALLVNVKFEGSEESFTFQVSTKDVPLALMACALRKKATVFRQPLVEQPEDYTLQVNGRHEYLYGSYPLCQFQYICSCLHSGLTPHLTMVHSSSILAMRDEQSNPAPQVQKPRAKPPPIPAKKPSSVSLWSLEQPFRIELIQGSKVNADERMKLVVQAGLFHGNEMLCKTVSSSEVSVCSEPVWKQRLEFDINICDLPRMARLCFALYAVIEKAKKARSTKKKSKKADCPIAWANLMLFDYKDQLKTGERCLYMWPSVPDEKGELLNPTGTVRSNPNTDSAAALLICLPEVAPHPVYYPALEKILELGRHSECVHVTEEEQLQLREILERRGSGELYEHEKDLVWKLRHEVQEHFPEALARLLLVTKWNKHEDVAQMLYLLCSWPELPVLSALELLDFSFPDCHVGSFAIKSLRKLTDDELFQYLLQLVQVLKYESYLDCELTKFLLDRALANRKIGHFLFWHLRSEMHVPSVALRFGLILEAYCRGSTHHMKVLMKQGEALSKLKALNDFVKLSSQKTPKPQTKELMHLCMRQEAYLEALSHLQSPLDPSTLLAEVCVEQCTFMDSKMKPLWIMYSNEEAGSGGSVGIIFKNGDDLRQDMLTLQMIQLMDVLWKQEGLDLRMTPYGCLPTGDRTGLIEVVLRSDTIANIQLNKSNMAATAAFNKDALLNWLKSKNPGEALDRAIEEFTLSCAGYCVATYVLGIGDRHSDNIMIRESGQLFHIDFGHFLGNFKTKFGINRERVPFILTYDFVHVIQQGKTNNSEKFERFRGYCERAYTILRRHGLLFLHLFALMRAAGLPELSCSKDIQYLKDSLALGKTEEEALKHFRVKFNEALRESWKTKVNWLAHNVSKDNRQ
# Sequence (P27986 whole entry partner): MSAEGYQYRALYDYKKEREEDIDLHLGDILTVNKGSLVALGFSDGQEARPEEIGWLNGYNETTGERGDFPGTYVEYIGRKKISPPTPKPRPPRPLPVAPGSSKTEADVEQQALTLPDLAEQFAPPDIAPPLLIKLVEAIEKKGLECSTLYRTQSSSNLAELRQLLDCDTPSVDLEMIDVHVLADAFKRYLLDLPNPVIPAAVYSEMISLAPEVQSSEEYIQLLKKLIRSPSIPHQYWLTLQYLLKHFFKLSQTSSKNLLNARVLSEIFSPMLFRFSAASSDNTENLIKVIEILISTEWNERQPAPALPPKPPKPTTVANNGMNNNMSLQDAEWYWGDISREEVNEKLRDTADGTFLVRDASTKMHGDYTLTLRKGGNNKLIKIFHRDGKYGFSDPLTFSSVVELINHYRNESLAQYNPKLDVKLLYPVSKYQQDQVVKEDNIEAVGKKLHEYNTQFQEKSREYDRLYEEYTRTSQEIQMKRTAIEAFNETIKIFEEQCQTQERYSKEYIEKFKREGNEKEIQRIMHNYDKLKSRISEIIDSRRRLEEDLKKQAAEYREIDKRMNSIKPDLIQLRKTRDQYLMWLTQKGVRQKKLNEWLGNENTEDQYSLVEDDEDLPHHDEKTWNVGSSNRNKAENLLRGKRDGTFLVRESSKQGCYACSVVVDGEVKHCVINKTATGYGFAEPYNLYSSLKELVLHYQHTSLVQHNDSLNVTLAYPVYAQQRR
# assay-procedure: PI 3-Kinase (human) HTRF assay, PI3K δ
# reported-conditions: read-out: PI3K δ IC50; in vitro
pIC50: −log10 of the molar value.

Query block: Look at this compound and give its reported pIC50. Nc1cc(-c2ccc3ncc(C(=O)N4CCOCC4)n3c2)cnc1Cl [Compound 415]
Result block: < 5.00

Query block: Further, for [2H]C1([2H])OC([2H])([2H])C([2H])([2H])N(C(=O)c2cnc3ccc(-c4ccc5oc(N)nc5c4)cn23)C1([2H])[2H] [Compound 529] ?
Result block: < 5.00

Query block: Further, for CNS(=O)(=O)c1cc(-c2ccc3ncc(C(=O)N4CCOCC4)n3c2)ccc1OC [Compound 445] ?
Result block: < 5.00

Query block: Further, for Cc1cc(-c2ccc3nc(N)oc3c2)cn2c(-c3ccncc3)nnc12 [Compound 543] ?
Result block: < 5.00

Query block: Further, for O=C(c1cnc2ccc(-c3cncc4c3cnn4CCO)cn12)N1CCOCC1 [Compound 539] ?
Result block: < 5.00

Query block: Further, for Cc1ncc(-c2ccc3ncc(C(=O)N4CCOCC4)n3c2)c2cn[nH]c12 [Compound 530] ?
Result block: > 5.00

Query block: Further, for COc1ccc(CNc2n[nH]c3cc(-c4ccc5oc(N)nc5c4)ccc23)cc1 [Compound 429] ?
Result block: < 5.00

Query block: Further, for [2H]c1c(-c2ccc3ncc(C(=O)N4CCOCC4)n3c2)c([2H])c2nc(N)oc2c1[2H] [Compound 531] ?
Result block: < 5.00

Query block: Further, for Nc1nc2cc(-c3ccc4ncc(C(=O)N5CC(N6CC[C@@H](O)C6)C5)n4c3)ccc2o1 [Compound 470] ?
Result block: > 5.00

Query block: Further, for O=C(c1cnc2ccc(-c3ccc(Cl)c(NS(=O)(=O)c4ccc(F)cc4F)c3)cn12)N1CCOCC1 [Compound 461] ?
Result block: > 5.00
